Consider the following compounds; for each one, report its EOSINOPHIL.
Species: Rattus norvegicus
assay.info: DrugMatrix - Regimen: Daily Repeat
Type: toxicity, organism-based, Sprague-Dawley
Parameters: regimen Daily Repeat, gender Male, age 6-8 weeks
settings: in vivo, po, 0 mg/kg, 72 h, tissue Blood, route oral GAVAGE, dose level Control, time 3 day, vehicle .5 % CMC
Numbers only, in %.

Please review the following examples before continuing.
>  <smiles.str>
O=c1cc(-c2ccccc2)oc2ccc3ccccc3c12

>  <units>
%

>  <EOSINOPHIL>
0.48

$$$$
>  <smiles.str>
C=C(CC)C(=O)c1ccc(OCC(=O)O)c(Cl)c1Cl

>  <units>
%

>  <EOSINOPHIL>
0

$$$$

Req: Would you kindly share the measured EOSINOPHIL for `CC(C)(Sc1cc(C(C)(C)C)c(O)c(C(C)(C)C)c1)Sc1cc(C(C)(C)C)c(O)c(C(C)(C)C)c1` ?
Resp: 1.33

---

Species on record: Rattus norvegicus
assay.info: DrugMatrix - Regimen: Daily Repeat
Format: toxicity, organism-based, Sprague-Dawley
Parameters: regimen Daily Repeat, gender Male, age 6-8 weeks
settings: in vivo, po, 0 mg/kg, 120 h, tissue Plasma, route oral GAVAGE, dose level Control, time 5 day, vehicle .5 % CMC
Consider the following molecules; for each one, report its SODIUM.
Numbers only, in MEQ/L.

>  <molecule>
COc1ccc(/C=C/C(=O)Nc2ccccc2C(=O)O)cc1OC

>  <SODIUM [MEQ/L]>
143.8

$$$$
>  <molecule>
CC(C(=O)O)c1ccc(-c2ccccc2)c(F)c1 (stereo not given)

>  <SODIUM [MEQ/L]>
143.8

$$$$
>  <molecule>
CCCCC1C(=O)N(c2ccccc2)N(c2ccccc2)C1=O

>  <SODIUM [MEQ/L]>
143.35

$$$$
>  <molecule>
CCOC(=O)[C@H](CCc1ccccc1)N[C@@H](C)C(=O)N1Cc2ccccc2C[C@H]1C(=O)O

>  <SODIUM [MEQ/L]>
143.03

$$$$
>  <molecule>
CN1C(=O)CN=C(c2ccccc2)c2cc(Cl)ccc21

>  <SODIUM [MEQ/L]>
142.75

$$$$
>  <molecule>
CC(C)(Sc1cc(C(C)(C)C)c(O)c(C(C)(C)C)c1)Sc1cc(C(C)(C)C)c(O)c(C(C)(C)C)c1

>  <SODIUM [MEQ/L]>
143.8

$$$$
>  <molecule>
COc1ccccc1OCC(O)COC(N)=O (stereo not given)

>  <SODIUM [MEQ/L]>
143.62

$$$$
>  <molecule>
C[C@@H]1CC[C@H]2[C@@H](C)C(=O)O[C@@H]3O[C@@]4(C)CC[C@@H]1[C@]32OO4

>  <SODIUM [MEQ/L]>
143.62

$$$$
>  <molecule>
C=C(CC)C(=O)c1ccc(OCC(=O)O)c(Cl)c1Cl

>  <SODIUM [MEQ/L]>
150.5

$$$$

In the following, a different molecule is considered.
Req: Would you kindly share the measured SODIUM for CC(=O)O[C@]1(C(C)=O)CC[C@H]2[C@@H]3C=C(Cl)C4=CC(=O)[C@@H]5C[C@@H]5[C@]4(C)[C@H]3CC[C@@]21C [CYPROTERONE ACETATE] ?
Resp: 143.03

---

Species: Rattus norvegicus
assay.info: DrugMatrix - Regimen: Daily Repeat
Assay type: toxicity, organism-based, Sprague-Dawley
Parameters: regimen Daily Repeat, gender Male, age 6-8 weeks
settings: in vivo, po, 0 mg/kg, 120 h, tissue Blood, route oral GAVAGE, dose level Control, time 5 day, vehicle .5 % CMC
Consider the following molecules; for each one, report its HEMOGLOBIN.
Answers are plain numbers, in G/DL.

>  <molecule>
CN1C(=O)CN=C(c2ccccc2)c2cc(Cl)ccc21

>  <units>
G/DL

>  <HEMOGLOBIN>
14.27

$$$$

Field: HEMOGLOBIN. Fill in for each record below.
1. C[C@@H]1CC[C@H]2[C@@H](C)C(=O)O[C@@H]3O[C@@]4(C)CC[C@@H]1[C@]32OO4
2. C=C(CC)C(=O)c1ccc(OCC(=O)O)c(Cl)c1Cl
3. Cc1cnc(C(=O)NCCc2ccc(S(=O)(=O)NC(=O)NC3CCCCC3)cc2)cn1 [GLIPIZIDE]
4. CC(C)(Sc1cc(C(C)(C)C)c(O)c(C(C)(C)C)c1)Sc1cc(C(C)(C)C)c(O)c(C(C)(C)C)c1

Resp:
[13.22, 15.83, 13.63, 13.4]

Field: HEMOGLOBIN. Fill in for each record below.
1. Nc1cccc(Cl)c1
2. COc1ccccc1OCC(O)COC(N)=O (configuration not stated)

Resp:
[13.78, 13.22]

---

Organism: Rattus norvegicus
assay.info: DrugMatrix - Regimen: Daily Repeat
Format: toxicity, organism-based, Sprague-Dawley
Parameters: regimen Daily Repeat, gender Male, age 6-8 weeks
settings: in vivo, po, 0 mg/kg, 120 h, tissue Plasma, route oral GAVAGE, dose level Control, time 5 day, vehicle 100 % WATER
Consider the following molecules; for each one, report its CREATINE PHOSPHOKINASE.
Numbers only, in u/L.

Field: CREATINE PHOSPHOKINASE. Fill in for each record below.
1. CNS(=O)(=O)Cc1ccc2[nH]cc(CCN(C)C)c2c1
2. CCN[C@@H](C)Cc1cccc(C(F)(F)F)c1
3. OCCO
4. Nc1ccc(S(=O)(=O)Nc2nccs2)cc1
5. CCOC(N)=O

Resp:
[255.33, 130.67, 253.33, 248.33, 323.17]

---

Species: Rattus norvegicus
assay.info: DrugMatrix - Regimen: Daily Repeat
Format: toxicity, organism-based, Sprague-Dawley
Parameters: regimen Daily Repeat, gender Male, age 6-8 weeks
settings: in vivo, po, 0 mg/kg, 72 h, tissue Blood, route oral GAVAGE, dose level Control, time 3 day, vehicle 100 % WATER
metric.name: HEMATOCRIT
Please format your answer as a value with the unit trailing.

Please review the following examples before continuing.
>  <compound>
CCCCCCCCCCCCCCCC[n+]1ccccc1.[Br-]

>  <HEMATOCRIT>
35.77%

$$$$
>  <compound>
Nc1ccc(S(=O)(=O)Nc2ncccn2)cc1

>  <HEMATOCRIT>
35.07%

$$$$

Field: HEMATOCRIT. Fill in for each record below.
1. Cc1c(N(C)CS(=O)(=O)[O-])c(=O)n(-c2ccccc2)n1C.[Na+] [DIPYRONE SODIUM]
2. CC[C@H]1OC(=O)[C@H](C)[C@@H](O[C@H]2C[C@@](C)(OC)[C@@H](O)[C@H](C)O2)[C@H](C)[C@@H](O[C@@H]2O[C@H](C)C[C@H](N(C)C)[C@H]2O)[C@](C)(O)C[C@@H](C)CN(C)[C@H](C)[C@@H](O)[C@]1(C)O

Resp:
1. 37.62%
2. 32.62%

Field: HEMATOCRIT. Fill in for each record below.
1. CN1C2CCCC1CC(NC(=O)c1nn(C)c3ccccc13)C2 (stereo unspecified)
2. O=P1(N(CCCl)CCCl)NCCCO1 (stereo unspecified) [CYCLOPHOSPHAMIDE ANHYDROUS]

Resp:
1: 34.5%; 2: 33.63%

---

Consider the following compounds; for each one, report its TOTAL PROTEIN.
Species: Rattus norvegicus
assay.info: DrugMatrix - Regimen: Daily Repeat
Assay type: toxicity, organism-based, Sprague-Dawley
Design: regimen Daily Repeat, gender Male, age 6-8 weeks
settings: in vivo, po, 0 mg/kg, 72 h, tissue Plasma, route oral GAVAGE, dose level Control, time 3 day, vehicle 100 % WATER
One number for each entry, in G/DL.

>  <compound>
CCCCCCCCCCCCCCCC[n+]1ccccc1.[Br-]

>  <reported.result>
6.1

$$$$
>  <compound>
OCCO

>  <reported.result>
6.1

$$$$
>  <compound>
CCCc1nn(C)c2c(=O)[nH]c(-c3cc(S(=O)(=O)N4CCN(C)CC4)ccc3OCC)nc12

>  <reported.result>
6.1

$$$$
>  <compound>
CN1C2CCCC1CC(NC(=O)c1nn(C)c3ccccc13)C2 (stereo unspecified)

>  <reported.result>
6.08

$$$$
>  <compound>
O=P1(N(CCCl)CCCl)NCCCO1 (stereo unspecified) [CYCLOPHOSPHAMIDE ANHYDROUS]

>  <reported.result>
6.08

$$$$

In the following, a different compound is considered.
Req: Would you kindly share the measured TOTAL PROTEIN for `CNS(=O)(=O)Cc1ccc2[nH]cc(CCN(C)C)c2c1` ?
Resp: 5.95

---

Organism: Rattus norvegicus
assay.info: DrugMatrix - Regimen: Daily Repeat
Assay type: toxicity, organism-based, Sprague-Dawley
Parameters: regimen Daily Repeat, gender Male, age 6-8 weeks
settings: in vivo, po, 0 mg/kg, 120 h, tissue Blood, route oral GAVAGE, dose level Control, time 5 day, vehicle 100 % WATER
Consider the following compounds; for each one, report its ERYTHROCYTE COUNT.
Numbers only, in x10E6/uL.

Please review the following examples before continuing.
>  <compound>
CCCc1nn(C)c2c(=O)[nH]c(-c3cc(S(=O)(=O)N4CCN(C)CC4)ccc3OCC)nc12

>  <reported.result>
5.49

$$$$
>  <compound>
CCOC(N)=O

>  <reported.result>
5.53

$$$$
>  <compound>
CC[C@H]1OC(=O)[C@H](C)[C@@H](O[C@H]2C[C@@](C)(OC)[C@@H](O)[C@H](C)O2)[C@H](C)[C@@H](O[C@@H]2O[C@H](C)C[C@H](N(C)C)[C@H]2O)[C@](C)(OC)C[C@@H](C)C(=O)[C@H](C)[C@@H](O)[C@]1(C)O

>  <reported.result>
5.31

$$$$

Field: ERYTHROCYTE COUNT. Fill in for each record below.
1. CC(C)(C)NC[C@H](O)COc1nsnc1N1CCOCC1
2. O=P1(N(CCCl)CCCl)NCCCO1 (stereo not given) [CYCLOPHOSPHAMIDE ANHYDROUS]

Resp:
[5.49, 5.32]
